For each of the compounds below, state its inhibition at 0.1 µM.
# assayTarget: androgen receptor (AR) (Homo sapiens, UniProt P10275)
# Sequence (P10275 whole entry): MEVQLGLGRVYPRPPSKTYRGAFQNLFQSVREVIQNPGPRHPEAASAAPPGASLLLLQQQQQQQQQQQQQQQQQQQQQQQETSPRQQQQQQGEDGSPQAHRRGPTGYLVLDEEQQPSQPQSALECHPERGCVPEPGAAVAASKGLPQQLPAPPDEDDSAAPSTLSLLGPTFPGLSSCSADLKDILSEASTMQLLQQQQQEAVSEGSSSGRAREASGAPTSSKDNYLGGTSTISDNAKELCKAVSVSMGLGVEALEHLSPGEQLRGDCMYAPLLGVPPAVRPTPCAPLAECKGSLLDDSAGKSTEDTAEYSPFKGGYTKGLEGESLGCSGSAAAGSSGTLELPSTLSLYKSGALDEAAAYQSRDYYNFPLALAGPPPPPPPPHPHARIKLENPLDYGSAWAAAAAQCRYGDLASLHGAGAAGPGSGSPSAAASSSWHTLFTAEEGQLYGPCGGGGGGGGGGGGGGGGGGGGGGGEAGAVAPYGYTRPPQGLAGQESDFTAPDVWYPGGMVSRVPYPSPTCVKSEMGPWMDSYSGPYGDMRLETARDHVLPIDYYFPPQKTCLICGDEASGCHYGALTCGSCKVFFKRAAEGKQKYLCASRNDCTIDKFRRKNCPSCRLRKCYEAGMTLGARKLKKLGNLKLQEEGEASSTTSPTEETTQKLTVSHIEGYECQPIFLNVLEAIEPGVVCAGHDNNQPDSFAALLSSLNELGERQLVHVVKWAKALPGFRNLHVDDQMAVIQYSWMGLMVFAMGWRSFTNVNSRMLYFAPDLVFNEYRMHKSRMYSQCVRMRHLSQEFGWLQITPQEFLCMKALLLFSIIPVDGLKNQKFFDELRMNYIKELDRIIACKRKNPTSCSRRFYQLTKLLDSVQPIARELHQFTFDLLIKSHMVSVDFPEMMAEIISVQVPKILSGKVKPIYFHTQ
# protocolDetails: Degradation of androgen receptor (AR) protein in VCaP cells by ELISA
# Type: cell-based
# protocolConditions: VCaP, 16 h, read-out: % degradation

The observed inhibition at 0.1 µM for CC(=O)O[C@@H]1CC(C(=O)NC2(c3ccc(-c4scnc4C)cc3)CC2)N(C(=O)[C@@H](NC(=O)COCCCCCNc2ccc(C(=O)N[C@H]3C(C)(C)[C@H](Oc4ccc(C#N)c(Cl)c4)C3(C)C)cc2)C(C)(C)C)C1 (stereo partly drawn) [Compound 46] when tested with androgen receptor (AR) (Homo sapiens, UniProt P10275) stands at 25 to 49%

Observed inhibition at 0.1 µM on androgen receptor (AR) (Homo sapiens, UniProt P10275), entry N#Cc1ccc(O[C@H]2CC[C@H](N3Cc4nc(N5CCC(CN6CCN(c7cc8c(cc7F)C(=O)N(C7CCC(=O)NC7=O)C8=O)CC6)CC5)ccc4C3=O)CC2)cc1Cl (stereo partly drawn) [Compound 200] , equals 50 to 79%

Record for Cc1ncsc1-c1ccc([C@H](C)NC(=O)[C@@H]2C[C@@H](O)CN2C(=O)[C@@H](NC(=O)CN2CCC(CN3CCN(c4ccc(C(=O)NC5CC6(C)OC5(C)[C@@H]5C(=O)N(c7ccc(C#N)c(Cl)c7)C(=O)[C@@H]56)cn4)CC3)CC2)C(C)(C)C)cc1 (stereo partly drawn) [Compound 18] under target or system androgen receptor (AR) (Homo sapiens, UniProt P10275): inhibition at 0.1 µM reported as > 80%

Recorded inhibition at 0.1 µM for CC(=O)O[C@@H]1C[C@@H](C(=O)N[C@@H](C)c2ccc(-c3scnc3C)cc2)N(C(=O)[C@@H](NC(=O)CN2CCC(CN3CCN(c4ccc(C(=O)NC5C[C@@]6(C)O[C@]5(C)[C@@H]5C(=O)N(c7ccc(C#N)c(Cl)c7)C(=O)[C@@H]56)cn4)CC3)CC2)C(C)(C)C)C1 (stereo partly drawn) [Compound 17] on androgen receptor (AR) (Homo sapiens, UniProt P10275) was 50 to 79%

# lookup: CC(=O)O[C@@H]1C[C@H](C(=O)N[C@H](C)c2ccc(-c3scnc3C)cc2)N(C(=O)[C@H](NC(=O)COCCCCCNc2ccc(C(=O)NC3C[C@]4(C)O[C@@]3(C)[C@@H]3C(=O)N(c5ccc(C#N)c(Cl)c5)C(=O)[C@@H]34)c(F)c2)C(C)(C)C)C1 (stereo partly drawn) [Compound 19] on androgen receptor (AR) (Homo sapiens, UniProt P10275), inhibition at 0.1 µM = < 25%

Cc1ncsc1-c1ccc([C@@H](C)NC(=O)[C@H]2C[C@@H](O)CN2C(=O)[C@H](NC(=O)COCCCCCNc2ccc(C(=O)NC3C[C@]4(C)O[C@@]3(C)[C@@H]3C(=O)N(c5ccc(C#N)c(Cl)c5)C(=O)[C@@H]34)c(F)c2)C(C)(C)C)cc1 (stereo partly drawn) [Compound 20] on androgen receptor (AR) (Homo sapiens, UniProt P10275) gives inhibition at 0.1 µM = 25 to 49%
